assay: in vitro; conditions: human, hek293t cells
viability at 48 h, 25 µM by entry:
READOUT NAME: viability at 48 h, 25 µM (%)

>>> result_value("O=C1C=CC(=O)N1c1ccc(F)cc1F [10-F15]")
89.5
>>> result_value("C=CC(=O)N1CCC(C(=O)N2CCC(C(=O)NCC(C)C)CC2)CC1 [3-C17]")
34.6
>>> result_value("N#CC(=Cc1cccc(F)c1)C(=O)NCc1ccccc1 [9-K09]")
109
>>> result_value("C=CC(=O)NC1(c2nc(C)no2)CC1 [3-L09]")
46.8
>>> result_value("C=CC(=O)N1CCc2cc(C(N)=O)ccc21 [1-P03]")
172
>>> result_value("COC(=O)C1(NC(=O)CCl)CC1 [6-I06]")
101
>>> result_value("C=CC(=O)NCC1CSCCS1 (centres unmarked) [1-K07]")
78.1
>>> result_value("COCc1noc(CN2CCN(C(=O)C(C)Cl)CC2)n1 (centres unmarked) [7-I06]")
88.7
>>> result_value("Cc1ccc(S(=O)(=O)N2CCSSCC2)c(F)c1 [10-L09]")
92.2
>>> result_value("C=CC(=O)N1CCC(C(=O)NC(C)CC2CC2)CC1 (centres unmarked) [3-M05]")
53.3
>>> result_value("N#CC(C(=O)CCl)=C1Nc2cc(Cl)ccc2S1 [10-O08]")
101
>>> result_value("CC(Cl)C(=O)NCc1csc2ccccc12 (centres unmarked) [7-C11]")
81.9
>>> result_value("CC(=O)N1c2ccc(C(=O)CCl)cc2CC1C (centres unmarked) [10-I20]")
3.53
>>> result_value("N#CC(=Cc1cc(F)ccc1F)C(=O)Nc1ccc(Cl)cc1Cl [8-O08]")
68.1
>>> result_value("N#CC(=Cc1csc(-c2ccsc2)n1)C(=O)NC1CC1 [9-N18]")
110
>>> result_value("C=CC(=O)N(C)CCCn1c(=O)c(C)nc2ccccc21 [1-I08]")
76.3
>>> result_value("CC(Cl)C(=O)NCC1=CCCOC1 (centres unmarked) [7-I05]")
89.9
>>> result_value("Cc1ccc(Cl)c(NC(=O)CCl)c1Cl [4-D10]")
1.7
>>> result_value("COc1ccc2c(c1)CCCN(C(=O)C(C)Cl)C2 (centres unmarked) [5-D17]")
90.9
>>> result_value("C=CC(=O)NCC1CCN(C2CC2)CC1 [1-A07]")
80.2
>>> result_value("CC(NC(=O)CCl)c1nc2c(s1)CCCCC2 (centres unmarked) [7-M22]")
0.506
>>> result_value("CC(C)C(NC(=O)CCl)c1ccc(F)cc1 (centres unmarked) [4-E13]")
1.68
>>> result_value("CCc1nc2c(s1)C(N(C)C(=O)C(C)Cl)CCC2 (centres unmarked) [7-N17]")
84.1
>>> result_value("O=C(CCl)NCc1ccccc1CS(=O)(=O)N1CCOCC1 [4-G08]")
0.79
>>> result_value("C=CC(=O)N1CCC(C(=O)Nc2cc(OCC)ccc2Cl)CC1 [1-I20]")
122
>>> result_value("COc1ccc(Cl)c2c1CCCC2N(C)C(=O)C(C)Cl (centres unmarked) [7-P09]")
86.7
>>> result_value("N#CC(=Cc1cccc(O)c1)C(=O)NCCc1ccccc1 [8-N03]")
101
>>> result_value("C/C(O)=C(\\C#N)C(=O)Nc1ccc(-c2ccccc2Cl)cc1 [9-P22]")
107
>>> result_value("COc1ccc(-n2c(C)cc(C=C(C#N)C(=O)N(C)OC)c2C)cc1 [9-N16]")
88.4
>>> result_value("CC(Cl)C(=O)N1CCCC(n2ccc(C(F)(F)F)n2)C1 (centres unmarked) [7-A08]")
80.7
>>> result_value("Cc1nn(C)c(C)c1C=C(C#N)C(=O)Nc1ccccc1F [9-I07]")
122
>>> result_value("CC(Cl)C(=O)N1CCCCCC1c1noc(-c2cnn(C)c2)n1 (centres unmarked) [7-C05]")
92.8

---

viability at 48 h, 25 µM by entry:
test: in vitro; conditions: human, hek293t cells
READOUT NAME: viability at 48 h, 25 µM (%)

>>> result_value("COc1ccc(C=C(C#N)C(=O)Nc2ccc(C)cc2)cc1O")
109
>>> result_value("Cc1ccc(N(C(=O)CCl)C2C=CS(=O)(=O)C2)cc1 (stereo not shown)")
0.562
>>> result_value("C=CC(=O)Nc1ccc(C(=O)N2CCCCC2CS(C)(=O)=O)cc1 (stereo not shown)")
102
>>> result_value("C=CC(=O)NCc1cc2cc(C)ccc2o1")
85.4
>>> result_value("Cc1ccc(C=C(C#N)C(=O)Nc2ccccc2C(F)(F)F)cc1")
96.3
>>> result_value("COc1cc(C(C)NC(=O)CCl)sn1 (stereo not shown)")
0.822
>>> result_value("O=C(CCl)N(Cc1ccc(F)cc1)C12CC3CC(CC(C3)C1)C2")
-0.169

---

experiment: in vitro; settings: human, hek293t cells
READOUT NAME: viability at 48 h, 25 µM (%)

>>> result_value("O=C(CCl)NCC1CC(=O)N(c2ccccc2)C1 (stereo not drawn) [5-A09]")
0.822
>>> result_value("C=CC(=O)N(C)[C@H]1CS(=O)(=O)C[C@@H]1O (racemic) [3-C15]")
46
>>> result_value("CCC(C)n1nccc1NC(=O)C(C)Cl (stereo not drawn) [6-A20]")
84.8
>>> result_value("N#CC(=Cc1ccc(Cl)cc1Cl)C(=O)Nc1nccs1 [9-H19]")
121
>>> result_value("O=C(CCl)NCC1CN(Cc2ccccc2)CC12CCC2 (stereo not drawn) [7-H03]")
0.629
>>> result_value("C=CC(=O)N1CCOCC1c1ccnn1C (stereo not drawn) [3-I19]")
49.7
>>> result_value("Cc1cccc(NC(=O)C(C#N)=Cc2cnc3ccc(C#N)cn23)c1 [9-O18]")
132
>>> result_value("C=CC(=O)NCC(C)Cn1nccc1C (stereo not drawn) [1-H14]")
87.8
>>> result_value("O=C1C=CC(=O)N1CCc1ccc(F)cc1 [10-C21]")
21.9
>>> result_value("Cc1cc(CN(C(=O)CCl)c2ccc(F)cc2)nn1C [5-E14]")
0.639
>>> result_value("CC(=O)N1CCC(NC(=O)C(C)Cl)c2ccc(F)cc2C1 (stereo not drawn) [7-I16]")
92.3
>>> result_value("C=CC(=O)N(C)CC(=O)Nc1ccc(N2CCC(O)CC2)cc1 [3-P06]")
65.6
>>> result_value("O=C(CN1CCN(C(=O)CCl)CC1)Nc1ccc(F)cc1 [4-J20]")
1.34
>>> result_value("N#Cc1ccc(NC(=O)CCl)cc1Cl [4-N03]")
0.427
>>> result_value("O=C(CCl)c1cscn1 [10-L08, 2-chloro-1-(1,3-thiazol-4-yl)ethan-1-one]")
59.2
>>> result_value("C=CC(=O)NC(C)c1nnnn1C (stereo not drawn) [3-A15]")
23.9
>>> result_value("O=C(CCl)NC1CCN(c2ccncc2)CC1 [5-P09]")
48.1
>>> result_value("O=C(CCl)Nc1ccc2oc3ccccc3c2c1 [6-N06]")
2.09
>>> result_value("O=C(CCl)c1c[nH]c2ccc(F)cc12 [10-O11]")
0.58
>>> result_value("CC(Cl)C(=O)N(C)Cc1ncnn1CC(F)F (stereo not drawn) [7-C10]")
97.8
>>> result_value("CCCCNC(=O)C(C#N)=Cc1cc(C)ccc1C [9-C11]")
93.1
>>> result_value("CCc1ccc(CC)c(C(=O)CCl)c1 [10-H14]")
33.6
>>> result_value("O=C(Nc1nccs1)N1CCSSCC1 [10-O22]")
113
>>> result_value("O=C(CCl)NCc1ccccc1OC(F)(F)F [4-L21]")
0.623
>>> result_value("C=CC(=O)N(Cc1cnc(C2CC2)o1)C1CCCCC1C (stereo not drawn) [1-D15]")
118
>>> result_value("CC(Cl)C(=O)NC(C)c1cnn(CC2CCC2)c1 (stereo not drawn) [5-L15]")
108
>>> result_value("CC(C)N(Cc1ccc(N(C)C)cc1)C(=O)CCl [5-E06]")
1.94
>>> result_value("Cc1cc(=O)[nH]c(-c2cccc(NC(=O)C(C#N)=Cc3ccco3)c2)n1 [8-B10]")
57.8
>>> result_value("N#CC(=Cc1ccc(Cl)c([N+](=O)[O-])c1)C(=O)NCc1ccco1 [9-E15]")
6.64
>>> result_value("CCc1oc2ccccc2c1C=C(C#N)C(=O)NC1CC1 [9-M12]")
74.5

---

assay: in vitro; conditions: human, hek293t cells
Rule: viability at 48 h, 25 µM below 40% gives 1. Equal to or above 40% gives 0.

>>> qualitative_label("COc1ccc(C=C(C#N)C(=O)Nc2cccc3ccccc23)cc1 [9-E10]")
0
>>> qualitative_label("O=C(CCl)Nc1cc(S(=O)(=O)N2CCCC2)ccc1Cl [6-G14]")
1
>>> qualitative_label("C=CC(=O)N1CCC(C(=O)N2CCC(c3ncco3)CC2)CC1 [2-B06]")
0
>>> qualitative_label("CCOC(=O)c1ccc(NC(=O)CCl)cc1 [4-E17, ethyl 4-(2-chloroacetamido)benzoate]")
1
>>> qualitative_label("C=CC(=O)NCc1cccc(CNS(C)(=O)=O)c1 [3-F11]")
0
>>> qualitative_label("C=CC(=O)N(CC)CC(=O)N1CCC(c2nnc(C)o2)CC1 [3-A08]")
0
>>> qualitative_label("CC(C)(C)N(Cc1ccccc1)C(=O)CCl [5-H20, N-benzyl-N-tert-butyl-2-chloroacetamide]")
1
>>> qualitative_label("O=C(CCl)NCCc1ccn(C2CCCC2)n1 [7-L20]")
1

Origin of values: paper PMC11995724
